Values were extracted from patent US20120046273A1.

Test: Plasma concentration in rats, iontophoresis patch versus oral gavage
Assay type: in vivo
Settings: Long Evans Hooded, rat, po, 10 mg/kg, oral gavage
measurementKind: concentration at 30 minutes (nM)

INSERT INTO assay_data (compound, unitsymbol, readoutnumber) VALUES
  ('CCc1noc(C2CN=CNC2)n1 (stereo not shown)', 'nM', 911);

---

Listed here are molecules together with their documented huM3/A9L Smax.
Target: human muscarinic M3 receptors (Homo sapiens)
Construct: expressed in transfected cells; host or cells: A9L cells (gift from Professor W Messer)
Assay: Inositol phosphate production in huM3/A9L cells (IPOne TR-FRET)
Assay type: cell-based
Details: percentage of maximal stimulation by carbachol
measurementKind: huM3/A9L Smax

INSERT INTO measurements (molecule, result) VALUES
  ('Cc1noc([C@@H]2CNC[C@@H](C)C2)n1', '14%'),
  ('[2H]C([2H])([2H])c1noc(C2CCCNC2)n1 (single isomer, unassigned) [Compound 90]', '76%'),
  ('Cc1noc([C@@H]2CCCN[C@@H]2C)n1', '32%'),
  ('Cc1noc([C@H]2CC[C@H](C)NC2)n1', '34%'),
  ('Cc1noc(C2CCCN(C)C2)n1 (stereo not shown)', '20%'),
  ('Cc1noc(C2CCCNC2)n1 (single isomer, unassigned) [Compound 83]', '47%'),
  ('Cc1noc(C2CCCNC2)n1 (racemic) [Compound 82]', '54%'),
  ('Cc1noc(C2CN3CCC2CC3)n1 (stereo not shown) [Compound 127, reference compound]', '50-100%'),
  ('[2H]C([2H])([2H])c1noc(C2CCCNC2)n1 (stereo not shown) [Compound 88]', '60%'),
  ('Cc1noc([C@H]2CNC[C@@H](C)C2)n1', '20%');

---

Target: human muscarinic M1 receptors (Homo sapiens, UniProt P11229)
Construct: expressed in transfected cells; host or cells: A9L cells (gift from Professor W Messer)
Sequence (P11229 whole entry): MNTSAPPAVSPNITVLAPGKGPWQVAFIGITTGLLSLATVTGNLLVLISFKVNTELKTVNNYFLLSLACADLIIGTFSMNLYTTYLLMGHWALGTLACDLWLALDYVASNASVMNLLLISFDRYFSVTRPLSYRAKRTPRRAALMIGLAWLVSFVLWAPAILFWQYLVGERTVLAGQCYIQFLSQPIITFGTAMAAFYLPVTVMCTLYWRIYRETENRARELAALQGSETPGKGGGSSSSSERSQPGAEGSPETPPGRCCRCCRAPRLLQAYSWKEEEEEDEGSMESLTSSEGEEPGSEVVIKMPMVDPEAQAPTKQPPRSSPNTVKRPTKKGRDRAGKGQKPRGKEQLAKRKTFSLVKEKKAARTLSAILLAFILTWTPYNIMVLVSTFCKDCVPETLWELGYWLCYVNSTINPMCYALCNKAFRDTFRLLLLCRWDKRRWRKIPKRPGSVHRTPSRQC
Test: Inositol phosphate production in huM1/A9L cells (IPOne TR-FRET)
Assay type: cell-based
Settings: percentage of maximal stimulation by carbachol
Class t: huM1/A9L Smax at least 90%. Class f: huM1/A9L Smax below 90%.

INSERT INTO assay_data (compound, group) VALUES
  ('CCc1noc(C2CCCNC2)n1 (stereo not shown) [Compound 128, reference compound]', 'f'),
  ('Cc1noc([C@H]2CC[C@H](C)NC2)n1', 'f'),
  ('Cc1noc(C2CCCN(C)C2)n1 (stereo not shown)', 'f'),
  ('Cc1noc(C2CCC(C)NC2)n1 (stereo not shown)', 'f'),
  ('Cc1noc(C2CCCNC2)n1 (single isomer, unassigned) [Compound 83]', 't'),
  ('Cc1noc(C2CCCNC2)n1 (single isomer, unassigned) [Compound 84]', 't'),
  ('[2H]C([2H])([2H])c1noc(C2CCCNC2)n1 (single isomer, unassigned) [Compound 90]', 'f'),
  ('Nc1noc(C2CCCNC2)n1 (stereo not shown)', 't'),
  ('Cc1noc([C@H]2CCCN[C@@H]2C)n1', 'f'),
  ('Cc1noc([C@H]2CNC[C@@H](C)C2)n1', 'f'),
  ('Cc1noc([C@@H]2CCCN[C@@H]2C)n1', 'f'),
  ('Cc1noc([C@@H]2CNC[C@@H](C)C2)n1', 'f'),
  ('Cc1noc(C2CCCNC2)n1 (racemic) [Compound 82]', 't'),
  ('[2H]C([2H])([2H])c1noc(C2CCCNC2)n1 (stereo not shown) [Compound 88]', 't');

---

Assay: Serum pharmacokinetics of immediate release capsules in human subjects
Type: in vivo
Settings: male, 6 subjects receiving 1 mg of MCD-386 HCl, oral
Counter-ions that a name gives are not always drawn.
measurementKind: Cmax

INSERT INTO measurements (compound, measurementkind, result) VALUES
  ('CCc1noc(C2CN=CNC2)n1 (stereo not shown) [MCD-386 HCl]', 'Cmax', '≤ 8 ng/mL');

---

Test: Serum pharmacokinetics of immediate release capsules in human subjects
Assay type: in vivo
Conditions: male, oral, 5 mg, 5 mg cohort, subject with the longest half-life, read-out: half-life in one subject (converted)
Counter-ions that a name gives are not always drawn.
measurementKind: half-life (h)

INSERT INTO assay_data (compound, measurementkind, unitsymbol, readoutnumber) VALUES
  ('CCc1noc(C2CN=CNC2)n1 (stereo not shown) [MCD-386 HCl]', 'half-life', 'h', 2.93);

---

Test: Serum pharmacokinetics of immediate release capsules in human subjects
Assay type: in vivo
Conditions: male, oral, 5 mg, 5 mg cohort excluding one subject, read-out: mean half-life for the other 5 subjects (converted)
Where a name gives a salt, the structure may show the parent alone.
measurementKind: half-life (h)

INSERT INTO assay_data (compound, measurementkind, readoutnumber) VALUES
  ('CCc1noc(C2CN=CNC2)n1 (stereo not shown) [MCD-386 HCl]', 'half-life', 1.44);

---

Assay: in vivo
Conditions: rat, po
measurementKind: Kp at 1 hour

INSERT INTO assay_data (molecule, readoutnumber) VALUES
  ('Cc1noc(C2CCCNC2)n1 (racemic)', 2.38);

---

Target: human muscarinic M1 receptors (Homo sapiens, UniProt P11229)
Construct: expressed in transfected cells; host or cells: A9L cells (gift from Professor W Messer)
Test: Inositol phosphate production in huM1/A9L cells (IPOne TR-FRET)
Format: cell-based
Details: potency relative to carbachol
measurementKind: huM1/A9L ED50 relative to CCh

INSERT INTO results (molecule, measurementkind, result) VALUES
  ('Cc1noc([C@H]2CC[C@H](C)NC2)n1', 'huM1/A9L ED50 relative to CCh', 'inactive'),
  ('Cc1noc(C2CCCN(C)C2)n1 (centres unmarked)', 'huM1/A9L ED50 relative to CCh', 'inactive');

---

Target: human muscarinic M3 receptors (Homo sapiens)
Construct: expressed in transfected cells; host or cells: A9L cells (gift from Professor W Messer)
Experiment: Inositol phosphate production in huM3/A9L cells (IPOne TR-FRET)
Format: cell-based
Conditions: percentage of maximal stimulation by carbachol
Listing of entries alongside the reported huM3/A9L Smax.
measurementKind: huM3/A9L Smax (%)

INSERT INTO assay_data (molecule, censoringoperator, readoutnumber) VALUES
  ('Cc1noc(C2CCCNC2)n1 (single isomer, unassigned) [Compound 84]', '=', 66),
  ('Cc1noc([C@H]2CCCN[C@@H]2C)n1', '=', 20),
  ('Cc1noc(C2CCC(C)NC2)n1 (stereo not drawn)', '=', 18),
  ('[2H]C([2H])([2H])c1noc(C2CCCNC2)n1 (single isomer, unassigned) [Compound 89]', '=', 86),
  ('CCc1noc(C2CCCNC2)n1 (stereo not drawn) [Compound 128, reference compound]', '<', 14),
  ('Nc1noc(C2CCCNC2)n1 (stereo not drawn)', '=', 20);

---

Target: human muscarinic M3 receptors (Homo sapiens, UniProt P20309)
Construct: expressed in transfected cells; host or cells: A9L cells (gift from Professor W Messer)
Sequence (P20309 whole entry): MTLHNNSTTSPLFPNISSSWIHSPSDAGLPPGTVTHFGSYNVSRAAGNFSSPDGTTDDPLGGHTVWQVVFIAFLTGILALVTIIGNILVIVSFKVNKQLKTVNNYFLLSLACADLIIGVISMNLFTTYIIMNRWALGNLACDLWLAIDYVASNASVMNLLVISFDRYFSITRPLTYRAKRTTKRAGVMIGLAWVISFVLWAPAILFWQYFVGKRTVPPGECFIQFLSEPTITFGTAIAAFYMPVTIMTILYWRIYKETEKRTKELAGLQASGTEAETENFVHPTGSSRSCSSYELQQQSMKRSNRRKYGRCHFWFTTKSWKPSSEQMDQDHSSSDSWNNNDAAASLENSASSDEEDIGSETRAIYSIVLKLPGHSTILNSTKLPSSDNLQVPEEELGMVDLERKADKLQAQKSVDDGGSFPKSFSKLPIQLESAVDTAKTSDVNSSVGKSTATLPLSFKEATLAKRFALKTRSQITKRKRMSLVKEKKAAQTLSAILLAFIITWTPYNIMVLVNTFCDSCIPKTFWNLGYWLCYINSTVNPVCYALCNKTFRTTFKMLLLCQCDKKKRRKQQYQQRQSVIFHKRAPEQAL
Assay: Inositol phosphate production in huM3/A9L cells (IPOne TR-FRET)
Format: cell-based
Conditions: potency relative to carbachol
measurementKind: huM3/A9L ED50 relative to CCh

INSERT INTO measurements (molecule, systemundertest, result) VALUES
  ('CCc1noc(C2CCCNC2)n1 (stereo not shown) [Compound 128, reference compound]', 'human muscarinic M3 receptors (Homo sapiens, UniProt P20309)', 'inactive'),
  ('Cc1noc(C2CCCNC2)n1 (single isomer, unassigned) [Compound 84]', 'human muscarinic M3 receptors (Homo sapiens, UniProt P20309)', '+/− (potency 0.5-2x CCh)'),
  ('[2H]C([2H])([2H])c1noc(C2CCCNC2)n1 (single isomer, unassigned) [Compound 89]', 'human muscarinic M3 receptors (Homo sapiens, UniProt P20309)', '+/− (potency 0.5-2x CCh)'),
  ('Cc1noc([C@H]2CNC[C@@H](C)C2)n1', 'human muscarinic M3 receptors (Homo sapiens, UniProt P20309)', 'inactive'),
  ('Cc1noc(C2CCCN(C)C2)n1 (stereo not shown)', 'human muscarinic M3 receptors (Homo sapiens, UniProt P20309)', 'inactive'),
  ('[2H]C([2H])([2H])c1noc(C2CCCNC2)n1 (single isomer, unassigned) [Compound 90]', 'human muscarinic M3 receptors (Homo sapiens, UniProt P20309)', '−− (potency <0.1x CCh)'),
  ('Nc1noc(C2CCCNC2)n1 (stereo not shown)', 'human muscarinic M3 receptors (Homo sapiens, UniProt P20309)', '+/− (potency 0.5-2x CCh)'),
  ('[2H]C([2H])([2H])c1noc(C2CCCNC2)n1 (stereo not shown) [Compound 88]', 'human muscarinic M3 receptors (Homo sapiens, UniProt P20309)', '+/− (potency 0.5-2x CCh)'),
  ('Cc1noc(C2(F)CCCNC2)n1 (stereo not shown)', 'human muscarinic M3 receptors (Homo sapiens, UniProt P20309)', '−− (potency <0.1x CCh)'),
  ('Cc1noc([C@H]2CC[C@H](C)NC2)n1', 'human muscarinic M3 receptors (Homo sapiens, UniProt P20309)', 'inactive'),
  ('Cc1noc([C@H]2CCCN[C@@H]2C)n1', 'human muscarinic M3 receptors (Homo sapiens, UniProt P20309)', 'inactive'),
  ('Cc1noc(C2CCCNC2)n1 (racemic) [Compound 82]', 'human muscarinic M3 receptors (Homo sapiens, UniProt P20309)', '+/− (potency 0.5-2x CCh)'),
  ('Cc1noc(C2CCC(C)NC2)n1 (stereo not shown)', 'human muscarinic M3 receptors (Homo sapiens, UniProt P20309)', 'inactive'),
  ('Cc1noc([C@@H]2CCCN[C@@H]2C)n1', 'human muscarinic M3 receptors (Homo sapiens, UniProt P20309)', 'inactive'),
  ('Cc1noc([C@@H]2CNC[C@@H](C)C2)n1', 'human muscarinic M3 receptors (Homo sapiens, UniProt P20309)', 'inactive');
